# Test system: SF-539 CNS
# test summary: NCI-60 one-dose screen, 48 h
# assay setup: 10 µM unless noted
This is part of a sample that, as a whole, favours compounds with a hit. Of some 83,000 tested, about 20% had one in any assay. The source made the active and inactive calls. The calls were made as follows: active = growth percent below 10; inactive = the rest.
Permitted responses: Y = active, N = inactive

[ask] Kindly provide the recorded test outcome for the following compound: CCC(=O)Oc1cc(Cl)c(Cl)cc1Cl
[reply] N

[ask] Kindly provide the recorded test outcome for the following compound: Nc1ncc(-c2ccc3ncnc(N4CCc5ccc(Cl)cc54)c3c2)cc1C(F)(F)F
[reply] Y

[ask] Kindly provide the recorded test outcome for the following compound: O=C(NCc1cccnc1)/C(=C\c1ccc(Br)cc1)S(=O)(=O)c1ccccc1
[reply] Y

[ask] Kindly provide the recorded test outcome for the following compound: COc1ccc2nc3cc(Cl)ccc3c(NCCCNCCC(C)O)c2c1 (stereo not drawn)
[reply] Y

[ask] Kindly provide the recorded test outcome for the following compound: Cc1ccc(C(=O)N(CCCN)[C@@H](c2nc3cc(Cl)ccc3c(=O)n2Cc2ccccc2)C(C)C)cc1
[reply] Y

[ask] Kindly provide the recorded test outcome for the following compound: COc1ccc(-c2cc(-c3cc(OC)c(OC)c(OC)c3)c(C#N)c(=O)n2CCCCC(=O)O)cc1
[reply] N

[ask] Kindly provide the recorded test outcome for the following compound: Clc1cccc(Nc2ncnc3ccc(-c4cncc(-n5cnnn5)c4)cc23)c1
[reply] N

[ask] Kindly provide the recorded test outcome for the following compound: CC(Sc1ccccc1)C(=O)O (stereo not drawn)
[reply] N

[ask] Kindly provide the recorded test outcome for the following compound: COc1nc2ccc(C)cc2cc1/C=[N+](\[O-])c1ccccc1
[reply] N

[ask] Kindly provide the recorded test outcome for the following compound: CCOC(=O)c1ccc(Nc2ncnc3c2cnn3-c2cccc(F)c2)cc1
[reply] N

[ask] Kindly provide the recorded test outcome for the following compound: Nc1nc(CSc2n[nH]c(N)n2)nc(Nc2ccccc2)n1
[reply] N

[ask] Kindly provide the recorded test outcome for the following compound: CCCCC1COc2cccc3c2N1C=C/C3=C\C(=O)N(C)c1cccc(Cl)c1 (stereo not drawn)
[reply] N

[ask] Kindly provide the recorded test outcome for the following compound: Clc1ccc2c(c1)N(c1ncnc3ccc(-c4cnc5[nH]ccc5c4)cc13)CC2
[reply] N

[ask] Kindly provide the recorded test outcome for the following compound: CC(C)=CCc1cc(O)c(O)c2oc3cc(O)cc(O)c3c(=O)c12
[reply] N

[ask] Kindly provide the recorded test outcome for the following compound: COc1ccc(CN2CCc3c(Cl)nc(N)nc3C2=O)c(OC)c1
[reply] Y

[ask] Kindly provide the recorded test outcome for the following compound: CC1=C2[C@@H](CC1)[C@]1(C)O[C@@](C(C)C)(C[C@H]1OC(=O)CO)[C@H]2OC(=O)C1CC1c1ccccc1 (stereo partly drawn)
[reply] N

[ask] Kindly provide the recorded test outcome for the following compound: COc1ccc(/C=C/C(=O)c2cc3c(N)c(C(=O)Nc4ccccc4)sc3nc2C)cc1
[reply] Y

[ask] Kindly provide the recorded test outcome for the following compound: CC[C@@H]1NC(=O)[C@H]([C@H](O)[C@H](C)C/C=C/c2ccc(CN3C(=O)C(C)=C(C)C3=O)cc2)N(C)C(=O)[C@H](C(C)C)N(C)C(=O)[C@H](CC(C)C)N(C)C(=O)[C@H](CC(C)C)N(C)C(=O)[C@@H](C)NC(=O)[C@H](C)NC(=O)[C@H](CC(C)C)N(C)C(=O)[C@H](C(C)C)NC(=O)[C@H](CC(C)C)N(C)C(=O)CN(C)C1=O
[reply] N

Hey, just so you know, these numbers are from PubChem BioAssay (NCI).
